Reference source: PubChem BioAssay (NCATS)

- assay-procedure: qHTS drug screen for cell cycle checkpoint inhibitors in PARPi-resistant BRCA-mutant ovarian cancer cell lines. (AID 1963452)
- condition-info: PEO1/OlaR viability, CellTiter-Glo luminescence, 96 h; measured here: PEO4 Z-AUC; stronger effect = lower value
- Text: Women's Malignancies Branch, Center for Cancer Research (CCR), National Cancer Institute (NCI), National Institutes of Health (NIH), Bethesda, MD Poly (ADP-ribose) polymerase inhibitors (PARPis) have changed the treatment paradigm in breast cancer gene (BRCA) - mutant high-grade serous ovarian carcinoma (HGSC). […] 6; Detection; Luminescence, PHERAstar (BMG Labtech) plate reader. […] 6. Luminescence readings were taken using PHERAstar (BMG Labtech). […]
Z-AUC strictly under 0.6 means Y; at 0.6 or over means N.

Check if Z-AUC falls below 0.6 for COc1ccc(S(=O)(=O)Nc2cc(-c3csc(C#N)c3)ccc2C)cc1 . Y

Hi there! Is Z-AUC for CCN(C)S(=O)(=O)Nc1ccc(F)c(C(=O)c2c[nH]c3ncc(-c4cnc(C5CC5)nc4)cc23)c1F below 0.6, do you know? Y

Record COc1ccc(-c2ccc3c(N4CCOC[C@@H]4C)nc(N4CCOC[C@@H]4C)nc3n2)cc1CO : is its Z-AUC strictly below 0.6? N

Below 0.6 on Z-AUC? Entry CC1(C)OCCn2c1nc1c(N3CCOCC3)nc(-c3cnc(N)nc3)nc12 Y

Given C=C1C(=O)OC2/C=C(/C)CC/C=C(/C)CCC12 (stereo not given) , is recorded Z-AUC strictly lower than 0.6? N

###

- System: W2
- assay-procedure: qHTS profiling for inhibitors of Plasmodium falciparum proliferation (AID 504749); further: nearly all actives have a fitted effect of over 60% in size
- condition-info: P. falciparum in erythrocytes, SYBR Green DNA, 72 h; series mostly up to 12.8 µM
Results filed as inconclusive are left out. Calls of active or inactive are those of the source. Calls come from the whole dose curve; as a rule, active = well fitted inhibition curve with a large enough effect; inconclusive = small, poorly fitted or top-dose-only effect; inactive = flat fitted curve, though single readings scatter. Peptide text beside a SMILES is read from it.
Field 'call' accepts active, inactive

Write down the call the test reported for this molecule. Item: CO[C@H]1[C@H](O[C@H]2O[C@@H](C)[C@@H](O[C@@H]3C[C@](C)(O)[C@H](OC(=O)CC(C)C)[C@H](C)O3)[C@@H](N(C)C)[C@@H]2O)[C@@H](CC=O)C[C@@H](C)[C@@H](O)/C=C\C=C/C[C@@H](C)OC(=O)C[C@H]1OC(C)=O active

Record lookup: outcome of this test for COC(=O)C(Cc1ccccc1)NC(=O)C(N)CC(=O)O (stereo not drawn) (H-Asp-Phe-OMe; configuration not given here) ? inactive

What outcome does the record of this test show for C[C@H](N[C@@H](C)COc1ccccc1)[C@H](O)c1ccc(O)cc1 ? active

Tell me the recorded outcome of this test for CC=C(/C(=C/C)c1ccc(O)cc1)c1ccc(O)cc1 . inactive

Assay outcome for CC1CCC(C(C)C)C(=O)C1 (centres undefined) : what was it? inactive

// param item: CCC[C@@H]1O[C@@H]2C[C@@H]3[C@H]4CCC5=CC(=O)C=C[C@@]5(C)[C@H]4[C@H](O)C[C@@]3(C)[C@@]2(C(=O)CO)O1 ; yields the recorded call active

// outcome(item) with item = CN1CC(=O)N=C1N inactive

Which result was noted for this molecule in the test: O=C1O[C@@H]([C@@H](O)CO)[C@@H](O)[C@H]1O inactive

How was CN1CCN([C@@H](c2ccccc2)c2ccc(Cl)cc2)CC1 classified in this test? active

What did the test return for Clc1ccc([C@H](Cn2ccnc2)OCc2c(Cl)cccc2Cl)c(Cl)c1 ? active

So what was the verdict on CC1(C)O[C@@H]2C[C@H]3[C@H]4C[C@H](F)C5=CC(=O)CC[C@]5(C)[C@@H]4[C@H](O)C[C@]3(C)[C@]2(C(=O)CO)O1 in this test? inactive

Which outcome was assigned to c1ccc2c(c1)CCC[C@@H]2C1=NCCN1 in this test? inactive

Please state the recorded outcome for this molecule: CC(C)(C)NC(=O)[C@@H]1CC[C@@H]2[C@@H]3CC[C@@H]4NC(=O)C=C[C@@]4(C)[C@H]3CC[C@]21C inactive

Tell me the assay call for C[C@]12C=CC(=O)C=C1CCC1C2C(O)C[C@]2(C)C1CC[C@]2(O)C(=O)CO (some centres undefined) please. inactive

###

- tgt: Rap guanine nucleotide exchange factor 3 (Homo sapiens)
- assay-procedure: Confirmatory qHTS for antagonist of cAMP-regulated guanine nucleotide exchange factor 3 (EPAC1) (AID 1645880); further: nearly all actives have a fitted effect of over 55% in size
- condition-info: EPAC1 Rap1B-BODIPY-GDP exchange, fluorescence; series mostly up to 115 µM
Results filed as inconclusive are left out. Calls of active or inactive are those of the source. Calls follow the shape of the dose curve; as a rule, active = well fitted inhibition curve with a large enough effect; inconclusive = small, poorly fitted or top-dose-only effect; inactive = no such curve, though single readings can be large or run the other way.
API: response.call in active, inactive

Outcome? Cc1nnc(N/N=C\c2ccc(-c3ccccc3[N+](=O)[O-])o2)n1N inactive

What classification did CC(Oc1ccc(-c2nnco2)cc1)C(=O)N1CCOCC1 (stereo unspecified) end up with in this test? inactive

Write down the call the test reported for this molecule. Item: COc1cccc(NC(=O)CCNC(=O)Cn2ccc3ccccc3c2=O)c1 inactive

Answer briefly: the call reported for CCCCn1c(N)c(N(CC(C)C)C(=O)C2CCN(S(=O)(=O)c3ccc(C)c(C)c3)CC2)c(=O)[nH]c1=O in this assay. inactive

Record lookup: outcome of this test for O=C1NC(=O)C2(N1)C(=O)c1cccc3cccc2c13 (stereo unspecified) ? inactive

Hi, sorry to bother you, what did the test record for COc1cccc2c(N/N=C/c3ccco3)cc(C)nc12 ? inactive

Hi, sorry to bother you, what did the test record for COc1ccc(N/C=C2\CCc3ccccc3C2=O)cc1 ? inactive

Record lookup: outcome of this test for CCNC(=O)COc1ccc(/C=C2\COc3ccccc3C2=O)cc1OC ? inactive

Assay outcome for CCOC(=O)N1CCC(N2CCOc3ccc(CN4CCC(O)(c5cccnc5)CC4)cc3C2)CC1 : what was it? inactive

Assay result, entry COc1cc2cc(CNc3ccc(C)cc3)c(=O)n(CC(=O)Nc3ccc(F)cc3F)c2cc1OC — outcome? inactive

Dear colleague, could you share the recorded outcome for Cc1ccc(S(=O)(=O)N2CCCCC2)cc1C(=O)NCCC1=CCCCC1 when you have a moment? inactive

Status in this test for CN1CCN(S(=O)(=O)c2ccc(Nc3ccc(F)cc3)nc2)CC1 ? inactive

// return assay outcome for CCOc1ccc(C(=O)NCC(=O)NCC(c2ccco2)N2CCCCC2)cc1OCC (stereo unspecified) inactive

Which result was noted for this molecule in the test: CCCCC(Sc1nc2cc3c(cc2c(=O)n1CCCC(=O)NCc1ccc2c(c1)OCO2)OCO3)C(=O)OCC (stereo unspecified) inactive

Test call for this molecule, please: N#Cc1c(NC(=O)c2ccccc2)sc2c1CCCCC2 inactive

Could you check what this test reported for CC(C)(C)C(=O)NCc1ccc(C(=O)CN2C(=O)NC3(CCCC3)C2=O)s1 ? inactive

Which outcome did this test record for the molecule CC(C)N1CCc2c(sc(NC(=O)c3ccc(S(=O)(=O)N4CCCCC4C)cc3)c2C(N)=O)C1 (stereo unspecified) ? active

Per the assay record, what outcome was assigned to CCCCn1c(N)c(N(CC(C)C)C(=O)C2CCN(C(=O)c3ccc(Cl)cc3)CC2)c(=O)[nH]c1=O ? inactive

Outcome? N#Cc1c(/N=C/c2ccco2)sc2c1CCC2 inactive

Outcome logged for O=C(O)CCc1ccc(-c2ccccc2)n1-c1cccc(Br)c1 in this assay: inactive

Give the logged outcome of this assay for the following molecule: C/C(=N\N1C(=O)c2ccccc2NC1c1ccco1)c1ccccc1O (stereo unspecified) active

###

- tgt: Rap guanine nucleotide exchange factor 4 (Homo sapiens) (UniProt Q8WZA2)
- Sequence (Q8WZA2 whole entry, looked up): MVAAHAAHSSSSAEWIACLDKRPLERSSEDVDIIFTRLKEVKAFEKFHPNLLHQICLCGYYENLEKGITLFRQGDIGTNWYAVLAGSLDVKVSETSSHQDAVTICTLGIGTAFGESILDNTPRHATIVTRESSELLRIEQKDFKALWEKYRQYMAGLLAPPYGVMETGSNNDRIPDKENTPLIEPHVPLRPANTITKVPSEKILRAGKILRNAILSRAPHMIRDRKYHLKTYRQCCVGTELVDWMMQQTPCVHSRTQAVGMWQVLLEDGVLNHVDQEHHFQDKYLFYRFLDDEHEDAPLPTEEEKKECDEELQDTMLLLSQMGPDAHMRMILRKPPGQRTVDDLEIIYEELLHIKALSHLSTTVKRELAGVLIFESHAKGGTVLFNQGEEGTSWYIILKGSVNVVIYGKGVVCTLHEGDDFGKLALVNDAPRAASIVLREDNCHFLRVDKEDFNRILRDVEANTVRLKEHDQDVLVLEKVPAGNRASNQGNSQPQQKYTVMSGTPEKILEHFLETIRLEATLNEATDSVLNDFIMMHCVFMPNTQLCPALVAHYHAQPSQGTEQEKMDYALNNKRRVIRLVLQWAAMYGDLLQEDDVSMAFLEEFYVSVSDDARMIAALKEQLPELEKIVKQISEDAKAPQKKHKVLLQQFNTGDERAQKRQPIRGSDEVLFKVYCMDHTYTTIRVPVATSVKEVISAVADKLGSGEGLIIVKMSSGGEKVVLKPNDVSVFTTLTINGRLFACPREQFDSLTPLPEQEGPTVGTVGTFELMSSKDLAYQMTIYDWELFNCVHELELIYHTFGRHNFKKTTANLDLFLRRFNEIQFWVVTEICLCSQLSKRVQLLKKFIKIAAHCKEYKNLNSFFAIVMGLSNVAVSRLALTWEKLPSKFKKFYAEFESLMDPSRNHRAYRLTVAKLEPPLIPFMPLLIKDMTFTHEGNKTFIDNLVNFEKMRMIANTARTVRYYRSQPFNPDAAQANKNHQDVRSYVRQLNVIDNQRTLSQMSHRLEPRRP
- assay-procedure: Confirmatory qHTS for agonist of cAMP-regulated guanine nucleotide exchange factor 4 (EPAC2) (AID 1645884);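 further: nucleotide exchange releases bodipy-GDP from Rap1 and this lowers its fluorescence; nearly all actives have a fitted effect of over 65% in size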
- condition-info: EPAC2 GEF activity, Rap1B-BODIPY-GDP fluorescence; series mostly up to 154 µM
Records with an inconclusive call do not appear. Calls of active or inactive are those of the source. Calls follow the shape of the dose curve; as a rule, active = well fitted activation curve with a large enough effect; inconclusive = small, poorly fitted or top-dose-only effect; inactive = no such curve, though single readings can be large or run the other way.
measured-endpoint: activation

Observe how each entry below is paired with its result.
INSERT INTO assay_data (molecule, measured_endpoint, endpoint_value) VALUES
  ('COc1ccc(C(C#N)=Cc2cccc(OC)c2OC)cc1', 'activation', 'inactive'),
  ('CCC1CCCCN1CCCNC(=O)c1ccc(CS(=O)(=O)Cc2ccccc2F)o1 (stereo unspecified)', 'activation', 'inactive'),
  ('CC1CCCCC1Nc1nc2ccc(Cl)cc2n2cnnc12 (stereo unspecified)', 'activation', 'inactive'),
  ('CCOC(=O)c1ccc(NC(=O)CSc2nc(=O)n3cccc(C)c3n2)cc1', 'activation', 'inactive'),
  ('CC(C)c1ccc(NC(=O)c2ccc(Cn3nc(N4CCN(c5ccccc5)CC4)ccc3=O)o2)cc1', 'activation', 'inactive'),
  ('O=C(Nc1ccc(Cl)cc1)N[C@@H]1CC[C@H](CCNS(=O)(=O)c2ccccc2F)O[C@@H]1CO', 'activation', 'inactive'),
  ('CCCCNC(=O)Cn1nc(N2CCN(c3ccccc3OC)CC2)ccc1=O', 'activation', 'inactive'),
  ('Cc1noc(C)c1CSc1ncnc2sc(C)c(C)c12', 'activation', 'inactive');

Now for the molecule whose activation we want.
Query activation for NC(=O)COC(=O)/C=C/c1ccc2ccccc2n1 inactive
